# Assay Target: MSLN抗原 (Mesothelin, MSLN-Biotin) (human) (UniProt Q13421)
# Protocol Text: BLI (Octet RED96), MSLN-Biotin on AR2G sensor, TG1 periplasmic scFv as analyte
# 响应 per record follows
A bare number is all that is needed in reply.

GET /values?readout=响应&item= 7D5 (scFv, V domains shown) VH: QVQLQQPGAELVKPGASMKLSCKASGYTFTSYWMHWVKQRPGQGLEWIGMIHPNSDNTIYYEKFKSKATLTVDKSSSTAYMQLSSLTSEDSAVYYCAIIITPVVPKFDYWGQGTTLTVSS VL: DIVMTQSHQFMSTSVGDRVSVTCKASHDVGTSVAWYQQKPGQSPKLLIYKASNNKKGVPDRFTGSGSGTDFTLTISNVQSEDLADYFCQQYSSYPLTFGAGTKLELK
0.94

Follow-up entry: 5F7 (scFv, V domains shown) VH: QVQLQQPGAELVKPGASMKLSCKASGYTFTSYWMHWVKQRPGQGLEWIGMIHPNSDNTIYYEKFKSKATLTVDKSSSTAYMQLSSLTSEDSAVYYCAIIITPVVPKFDYWGQGTTLTVSS VL: DIVMTQSHQFMSTSVGDRVSVTCKASHDVGTSVAWYQQKPGQSPKLLIYWASTRHTGVPDRFTGSGSGTDFTLTISNVQSEDLADYFCQQYASYPLSFGAGTKLELK
0.73

Follow-up entry: 4A12 (scFv, V domains shown) VH: QVQLQQPGAELVKPGASMKLSCKASGYTFTSYWMHWVKQRPGQGLEWIGMIHPNSDNTIYYEKFKSKATLTVDKSSSTAYMQLSSLTSEDSAVYYCAIVILPFLPKFDYWGQGTTLTVSS VL: DIVMTQSHQFMSTSVGDRVSVTCKASHDVGTSVAWYQQKPGQSPKLLIYWASTRHTGVPDRFTGSGSGTDFTLTISNVQSEDLADYFCQQYSSYPLTFGAGTKLELK
0.91

Each recorded value in this set is attributed to patent CN107840891A.
